assay: Lipophilicity, log D of the compound at pH 6.8 by chromatographic method; assay type: physicochemical; conditions: buffer
readout_name: chromatographic logD

Observe how each entry below is paired with its result.
[
  {
    "molecule_smiles": "CCOC(=O)c1cc(C#N)c(N2CCC(C(=O)NS(=O)(=O)Cc3ccc(F)cc3F)CC2)nc1C",
    "chromatographic logD": 2.9
  },
  {
    "molecule_smiles": "CCOC(=O)c1cc(C#N)c(N2CC(C(=O)NS(=O)(=O)Cc3ccc(Cl)cc3)C2)nc1C",
    "chromatographic logD": 2.7
  },
  {
    "molecule_smiles": "CCOC(=O)c1cnc(N2CCC(C(=O)NS(=O)(=O)c3ccc(Cl)s3)CC2)c(Cl)c1",
    "chromatographic logD": 2.8
  },
  {
    "molecule_smiles": "CCOC(=O)c1cc(C#N)c(N2CCC(C(=O)NS(=O)(=O)Cc3ccc(C(C)C)cc3)CC2)nc1C",
    "chromatographic logD": 4.2
  },
  {
    "molecule_smiles": "CCOC(=O)c1cc(C#N)c(N2CC(C(=O)NS(=O)(=O)Cc3ccccc3)C2)nc1C",
    "chromatographic logD": 2
  },
  {
    "molecule_smiles": "CCOC(=O)c1cc(C#N)c(N2CCC(C(=O)NS(=O)(=O)Cc3ccc(OC)cc3)CC2)nc1C",
    "chromatographic logD": 2.8
  }
]

Exam item: Form field: reported chromatographic logD of CCOC(=O)c1cc(C#N)c(N2CC(C(=O)NS(=O)(=O)Cc3ccc(F)cc3)C2)nc1C
Marked response: 2.3

Exam item: Item under review: CCOC(=O)c1cc(C#N)c(N2CC(C(=O)NS(=O)(=O)Cc3ccc(C)cc3)C2)nc1C . Reported chromatographic logD?
Marked response: 2.2

Exam item: Any idea what chromatographic logD was measured for CCOC(=O)c1cc(C#N)c(N2CC(C(=O)NS(=O)(=O)Cc3cccc(C)c3)C2)nc1C ?
Marked response: 2.2

---

experiment: Clearance in Beagle dog at 2 mg/kg, iv; assay type: ADME, organism-based, Canis lupus familiaris; set-up: dose 2 mg/kg, route intravenous; settings: in vivo
readout_name: clearance (mL/min/kg)
The reply should contain only the number, in mL/min/kg.

[
  {
    "molecule_smiles": "CCOC(=O)c1cc(C#N)c(N2CC(C(=O)NS(=O)(=O)Cc3ccccc3)C2)nc1C",
    "readout_name": "clearance",
    "obs_value": 9.8
  },
  {
    "molecule_smiles": "CCOC(=O)c1cc(C#N)c(N2CC(C(=O)NS(=O)(=O)Cc3ccc(F)cc3)C2)nc1C",
    "readout_name": "clearance",
    "obs_value": 9.4
  },
  {
    "molecule_smiles": "CCOC(=O)c1cc(C#N)c(N2CC(C(=O)NS(=O)(=O)Cc3ccc(C)cc3)C2)nc1C",
    "readout_name": "clearance",
    "obs_value": 4.5
  }
]

Please find the next compound below.
Exam item: Value lookup for clearance; key = CCOC(=O)c1cc(C#N)c(N2CCC(C(=O)NS(=O)(=O)Cc3ccc(F)cc3F)CC2)nc1C
Marked response: 1.1

---

assay: Permeability across apical to basolateral side in human Caco2 cells by LC/MS analysis; format: ADME, cell-based; settings: Caco-2, read-out: permeability
readout_name: Papp A→B (×10⁻⁶ cm/s)
Please reply with the bare figure in ×10⁻⁶ cm/s and do not write the unit itself.

// solved cases for Papp A→B follow
[
  {
    "molecule_smiles": "CCOC(=O)c1cnc(N2CCC(C(=O)NS(=O)(=O)c3ccc(Cl)s3)CC2)c(Cl)c1",
    "obs_value": 10
  },
  {
    "molecule_smiles": "CCOC(=O)c1cc(C#N)c(N2CCC(C(=O)NS(=O)(=O)c3ccc(Cl)s3)CC2)nc1C",
    "obs_value": 6
  },
  {
    "molecule_smiles": "CCOC(=O)c1cc(C#N)c(N2CC(C(=O)NS(=O)(=O)CCc3ccccc3)C2)nc1C",
    "obs_value": 0.3
  },
  {
    "molecule_smiles": "CCOC(=O)c1cc(C#N)c(N2CCC(C(=O)NS(=O)(=O)Cc3ccc(C)cc3)CC2)nc1C",
    "obs_value": 40
  },
  {
    "molecule_smiles": "CCOC(=O)c1cc(C#N)c(N2CC(C(=O)NS(=O)(=O)Cc3ccc(F)cc3)C2)nc1C",
    "obs_value": 0.1
  }
]

Exam item: Form field: reported Papp A→B of CCOC(=O)c1cc(C#N)c(N2CC(C(=O)NS(=O)(=O)Cc3ccc(Cl)cc3)C2)nc1C
Marked response: 0.2

Exam item: Report Papp A→B for CCOC(=O)c1cnc(N2CC(C(=O)NS(=O)(=O)c3ccc(Cl)s3)C2)c(Cl)c1 please.
Marked response: 0.5
